src = the supplement of paper PMC11246515

# assay: total protein half-life in vivo (active degradation + dilution); higher = more stable protein
# assay-setup: wild type E. coli NCM3722; growth: N-lim chemostat; doubling time 12 h
readout-type: total protein half-life in vivo (h)
A number alone suffices; assume h.

Value of measured total protein half-life in vivo for the entry MTLQQQIIKALGAKPQINAEEEIRRSVDFLKSYLQTYPFIKSLVLGISGGQDSTLAGKLCQMAINELRLETGNESLQFIAVRLPYGVQADEQDCQDAIAFIQPDRVLTVNIKGAVLASEQALREAGIELSDFVRGNEKARERMKAQYSIAGMTSGVVVGTDHAAEAITGFFTKYGDGGTDINPLYRLNKRQGKQLLAALACPEHLYKKAPTADLEDDRPSLPDEVALGVTYDNIDDYLEGKNVPQQVARTIENWYLKTEHKRRPPITVFDDFWKK : 7.98

Looking up MKTALLLEKLEGQLATLRQRCAPVSQFATLSARFDRHLFQTRATTLQACLDEAGDNLAALRHAVEQQQLPQVAWLAEHLAAQLEAIAREASAWSLREWDSAPPKIARWQRKRIQHQDFERRLREMVAERRARLARVTDLVEQQTLHREVEAYEARLARCRHALEKIENRLARLTR , I see its total protein half-life in vivo listed as 2.85

total protein half-life in vivo measured on MQENQQITKKEQYNLNKLQKRLRRNVGEAIADFNMIEEGDRIMVCLSGGKDSYTMLEILRNLQQSAPINFSLVAVNLDQKQPGFPEHVLPEYLEKLGVEYKIVEENTYGIVKEKIPEGKTTCSLCSRLRRGILYRTATELGATKIALGHHRDDILQTLFLNMFYGGKMKGMPPKLMSDDGKHIVIRPLAYCREKDIQRFADAKAFPIIPCNLCGSQPNLQRQVIADMLRDWDKRYPGRIETMFSAMQNVVPSHLCDTNLFDFKGITHGSEVVNGGDLAFDREEIPLQPACWQPEEDENQLDELRLNVVEVK = 1.58
